Provide the recorded Plant response rating, Giant foxtail for the entries that follow.
Test system: giant foxtail
ASSAY_COMMENT: Test B preemergence/postemergence greenhouse plant response rating 0 to 10
Format: in vivo, Setaria faberii
SETTINGS: Rate 200 g/ha, PREEMERGENCE; 0 to 10 scale
Source text: Seeds of barley (Hordeum vulgare), barnyardgrass (Echinochloa crus-galli), bedstraw (Galium aparine), blackgrass (Alopecurus myosuroides), […] […] Treated plants and controls were maintained in a greenhouse for twelve to sixteen days, after which all species were compared to controls and visually evaluated. […]
One number for each entry.

1) C=C(Cl)COc1cc(-c2nn3c(c2Cl)CCCC3)c(F)cc1Cl :: 9
2) CC(C)COc1cc(-c2nn3c(c2Cl)CCCC3)c(F)cc1Cl :: 8
3) COC(=O)C(C)Oc1cc(-c2nn3c(c2Cl)CCCC3)c(F)cc1Cl (centres unmarked) :: 5

Take each entry in turn and give its Plant response rating, Giant foxtail.
1. O=C1COc2cc(F)c(-c3nn4c(c3Cl)CCCC4)cc2N1
2. COC(=O)c1cc(-c2nn3c(c2Cl)CCCC3)c(F)cc1Cl

[8, 0]
